tested on: HCT116 (wild-type p53) colon cancer cells; assay: Cell growth inhibition, HCT116 p53WT; conditions: Homo sapiens, HCT-116, read-out: HCT116 p53WT IC50 (μM), HCT116 p53WT; single runs and mean ± SD line
Measured Metric: IC50 (µM)
One number for each entry, in µM.

Some compounds with known IC50 results, for comparison:
1) COC(C)(C)C[C@H]1N[C@@H](C(=O)NCC[C@H](O)CO)[C@H](c2ccc(F)c(Cl)c2)[C@@]12C(=O)Nc1cc(Cl)c(F)cc12 | 8.22
2) CC(C)(C)C[C@H]1N[C@@H](C(=O)NCC(=O)O)[C@H](c2ccc(F)c(Cl)c2)[C@@]12C(=O)Nc1cc(Cl)c(F)cc12 | 12.1
3) CC(C)(C)C[C@H]1N(S(=O)(=O)C(F)(F)F)[C@@H](C(=O)NCCN2CCOCC2)[C@H](c2ccc(F)c(Cl)c2)[C@@]12C(=O)Nc1cc(Cl)c(F)cc12 | 1.41
4) CC(C)(C)C[C@H]1N[C@@H](C(=O)NCCC2CCC(O)C2)[C@H](c2ccc(F)c(Cl)c2)[C@@]12C(=O)Nc1cc(Cl)c(F)cc12 (stereo partly shown) | 0.993

Consider now this further compound.
Request: Which measured IC50 belongs to CC(C)(C)C[C@H]1N[C@@H](C(=O)NCCc2ncc[nH]2)[C@H](c2cccc(Cl)c2)[C@@]12C(=O)Nc1cc(Cl)c(F)cc12 , tested on HCT116 (wild-type p53) colon cancer cells?
Result: 4.4

---

Please respond with reported IC50 for every item in the list.
test system: LNCaP (p53 wild-type) cells; assay: Cell growth inhibition, WST-8, 4 days, LNCaP; conditions: Homo sapiens, LNCaP, 96 h, read-out: LNCaP IC50 (μM), LNCaP p53 wild-type, 4 days, WST-8; single runs and mean ± SD line

Please state, for each entry, its recorded IC50.
1. CC(C)(C)C[C@H]1N[C@@H](C(=O)NCCC2CCC(O)C2)[C@H](c2ccc(F)c(Cl)c2)[C@@]12C(=O)Nc1cc(Cl)c(F)cc12 (stereo partly drawn) [MDM2-319-5]
2. CC(C)(C)C[C@H]1N[C@@H](C(=O)NCCNC(=N)N)[C@H](c2ccc(F)c(Cl)c2)[C@@]12C(=O)Nc1cc(Cl)c(F)cc12 [MI-319-20]
3. CN1CCN(C(=O)[C@@H]2N[C@H](CC(C)(C)C)[C@]3(C(=O)Nc4cc(Cl)c(F)cc43)[C@H]2c2ccc(F)c(Cl)c2)CC1 [MI-319-9]
4. CC(C)(C)C[C@H]1N[C@@H](C(=O)NCC[C@@H](O)C[C@@H](O)CC(=O)O)[C@H](c2ccc(F)c(Cl)c2)[C@@]12C(=O)Nc1cc(Cl)c(F)cc12 [MI-319-18]
5. CC(C)(C)C[C@H]1N(S(=O)(=O)C(F)(F)F)[C@@H](C(=O)NCCN2CCOCC2)[C@H](c2ccc(F)c(Cl)c2)[C@@]12C(=O)Nc1cc(Cl)c(F)cc12 [MI-319-10]

Result:
["0.602 µM", "27.4 µM", "2.87 µM", "> 30 µM", "0.776 µM"]

Request: Which measured IC50 belongs to CC(C)(C)C[C@H]1N[C@@H](C(=O)NCCc2ncc[nH]2)[C@H](c2cccc(Cl)c2)[C@@]12C(=O)Nc1cc(Cl)c(F)cc12 [MI-319-21] , tested on LNCaP (p53 wild-type) cells?
Result: 2.84 µM

---

Please respond with reported IC50 for every item in the list.
system: HCT116 p53KO cells; experiment: Cell growth inhibition, HCT116 p53KO; conditions: Homo sapiens, HCT-116, read-out: HCT116 p53KO IC50 (μM), HCT116 p53KO; single runs and mean ± SD line
One number for each entry, in µM.

1. CC(=O)N1[C@@H](C(=O)NCC[C@H](O)CO)[C@H](c2ccc(F)c(Cl)c2)[C@@]2(C(=O)Nc3cc(Cl)c(F)cc32)[C@H]1CC(C)(C)C | 32.6
2. CC(C)(C)C[C@H]1N[C@@H](C(=O)NCCc2ncc[nH]2)[C@H](c2cccc(Cl)c2)[C@@]12C(=O)Nc1cc(Cl)c(F)cc12 | 11.8
3. CC(C)(C)C[C@H]1N[C@@H](C(=O)NCC[C@H](O)CO)[C@H](c2ccc(F)c(Cl)c2)[C@@]12C(=O)Nc1cc(Cl)c(F)cc12 | 12.8

Please state, for each entry, its recorded IC50.
1. O=C(NCC[C@H](O)CO)[C@@H]1N[C@H](Cc2ccccc2)[C@]2(C(=O)Nc3cc(Cl)c(F)cc32)[C@H]1c1ccc(F)c(Cl)c1
2. CC(C)(C)C[C@H]1N[C@@H](C(=O)NCCC2CCC(O)C2)[C@H](c2ccc(F)c(Cl)c2)[C@@]12C(=O)Nc1cc(Cl)c(F)cc12 (stereo partly shown)

Result:
22.2
10.5

---

Please respond with reported IC50 for every item in the list.
target: MDM2 protein (Homo sapiens, UniProt Q00987); assay: MDM2 binding assay (competition with F-6 probe; IC50 and calculated Ki); details: MDM2 [10 nM]; F-6 [1 nM]; repeat determinations listed line by line
Sequence (Q00987 whole entry, species assumed): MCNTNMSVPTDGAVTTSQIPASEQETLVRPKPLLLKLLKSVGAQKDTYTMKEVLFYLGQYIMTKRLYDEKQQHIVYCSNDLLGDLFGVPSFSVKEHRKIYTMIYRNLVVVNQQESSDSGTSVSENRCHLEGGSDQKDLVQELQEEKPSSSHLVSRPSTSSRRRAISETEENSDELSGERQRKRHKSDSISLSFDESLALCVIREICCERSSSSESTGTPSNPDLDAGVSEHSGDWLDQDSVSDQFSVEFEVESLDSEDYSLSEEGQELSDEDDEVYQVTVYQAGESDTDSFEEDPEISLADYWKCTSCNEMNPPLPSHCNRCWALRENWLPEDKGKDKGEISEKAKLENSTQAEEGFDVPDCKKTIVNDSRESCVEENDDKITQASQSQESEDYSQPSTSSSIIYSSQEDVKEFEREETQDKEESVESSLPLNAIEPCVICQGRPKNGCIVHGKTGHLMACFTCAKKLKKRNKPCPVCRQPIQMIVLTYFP
Give bare numbers, in µM.

1) COC(C)(C)C[C@H]1N[C@@H](C(=O)NCC[C@H](O)CO)[C@H](c2ccc(F)c(Cl)c2)[C@@]12C(=O)Nc1cc(Cl)c(F)cc12 | 39.3

Consider now this further molecule.
Request: Report IC50 for CN1CCN(C(=O)[C@@H]2N[C@H](CC(C)(C)C)[C@]3(C(=O)Nc4cc(Cl)c(F)cc43)[C@H]2c2ccc(F)c(Cl)c2)CC1 please.
Result: 3.58
